These data points were gathered from patent US11566007B2.

Listed here: items and their measured pIC50.
Molecular target: K-Ras G12C (Homo sapiens (Human), UniProt P01116+P62937, G12C)
Sequence (P01116-2 other isoform, or with tags, fused parts or gaps G12C): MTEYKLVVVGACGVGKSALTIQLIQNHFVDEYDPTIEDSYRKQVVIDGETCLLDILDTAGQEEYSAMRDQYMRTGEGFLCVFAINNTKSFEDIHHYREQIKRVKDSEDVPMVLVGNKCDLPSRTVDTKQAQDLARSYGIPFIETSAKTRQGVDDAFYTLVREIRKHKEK
Sequence (P62937 whole entry): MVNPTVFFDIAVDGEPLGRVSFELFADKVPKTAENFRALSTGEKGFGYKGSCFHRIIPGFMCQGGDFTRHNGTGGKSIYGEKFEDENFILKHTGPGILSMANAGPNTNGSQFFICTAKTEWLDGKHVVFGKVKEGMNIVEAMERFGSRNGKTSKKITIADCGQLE
Test: Ras-Raf (BRAF RBD) disruption / FRET / MOA assay, KRAS G12C
Type: biochemical
Conditions: KRAS G12C; Ras-Raf disruption/FRET/MOA assay; read-out: IC50* KRAS G12C FRET data
Protocol: The purpose of this biochemical assay is to measure the ability of test compounds to facilitate ternary complex formation between a nucleotide-loaded Ras isoform and cyclophilin A; the resulting ternary complex disrupts binding to a BRAF^RBD construct, inhibiting Ras signaling through a RAF effector. Compound is present in plate wells as a 10-point 3-fold dilution series starting at a final concentration of 30 μM. […]
pIC50: −log10 of the molar value.

molecule	measuredOn	pIC50
CCn1c(-c2cccnc2COC)c2c3cc(ccc31)-c1cc(O)cc(c1)C[C@H](NC(=O)[C@H](C(C)C)N(C)C(=O)C1CN(C(=O)/C=C/CN(C)C)C1)C(=O)N1CCC[C@H](N1)C(=O)OCC(C)(C)C2	K-Ras G12C (Homo sapiens (Human), UniProt P01116+P62937, G12C)	7.00 to 8.00
C=CC(=O)N(C)CCC(=O)N(C)[C@H](C(=O)N[C@H]1Cc2cc(O)cc(c2)-c2ccc3c(c2)c(c(-c2cccnc2COC)n3CC)CC(C)(C)COC(=O)[C@@H]2CCCN(N2)C1=O)C(C)C	K-Ras G12C (Homo sapiens (Human), UniProt P01116+P62937, G12C)	6.00 to 7.00
CC#CC(=O)N1CC[C@@H](C(=O)N(C)[C@H](C(=O)N[C@H]2Cc3cc(O)cc(c3)-c3ccc4c(c3)c(c(-c3cncnc3)n4CC)CC(C)(C)COC(=O)[C@@H]3CCCN(N3)C2=O)C(C)C)C1	K-Ras G12C (Homo sapiens (Human), UniProt P01116+P62937, G12C)	6.00 to 7.00
CCn1c(-c2cccnc2COC)c2c3cc(ccc31)-c1cccc(c1)C[C@H](NC(=O)[C@H](C(C)C)N(C)C(=O)[C@H]1CCN(C(=O)C#CCN(C)C)C1)C(=O)N1CCC[C@H](N1)C(=O)OCC(C)(C)C2 (atropisomer, axis not shown)	K-Ras G12C (Homo sapiens (Human), UniProt P01116+P62937, G12C)	7.00 to 8.00
C=CC(=O)N1CC(OCC(C(=O)N[C@H]2Cc3cccc(c3)-c3ccc4c(c3)c(c(-c3cccnc3[C@H](C)OC)n4CC)CC(C)(C)COC(=O)[C@@H]3CCCN(N3)C2=O)C(C)C)C1 (some centres unmarked) [Example A483]	K-Ras G12C (Homo sapiens (Human), UniProt P01116+P62937, G12C)	6.00 to 7.00
